Where do the numbers come from? From PubChem BioAssay (NCI).

test system: OVCAR-3 ovarian; test: NCI tumour cell line growth inhibition, 48 h
Reported values of TGI for individual entries
Please respond with the number in µM and leave the unit unwritten.

Reference set, count: 4
| COMPOUND | TGI (µM) |
| --- | --- |
| CS(=O)(=O)CCNCc1coc(-c2ccc3ncnc(Nc4ccc(OCc5ccccc5)cc4)c3c2)c1 | 13.7 |
| Cc1n(CC(C)C)c2c([n+]1C)C(=O)c1ccccc1C2=O | 0.0961 |
| Cn1c(Cl)c(/C=C2/C(=O)Nc3ccccc32)c2ccccc21 | 1.26 |
| O=c1[nH]c2cc(C(F)(F)F)ccc2nc1C(F)(F)F | 58 |

State its TGI for this compound: C=C1c2c(C)nn(-c3ccc(C#CCOC4OC(CO)C(O)C(O)C4O)cc3)c2N(C)C23C[C@H]1C1(C)c4c(C)nn(-c5ccc(C#CCOC6OC(CO)C(O)C(O)C6O)cc5)c4N(C)C(C)(C[C@H]12)C3 (stereo not given in full) 3.8
